Where do these numbers come from? They come from ChEMBL document CHEMBL3085676.

tested on: Candida albicans; test: Antifungal activity against Candida albicans NCIM 3471 after 48 to 72 hrs; format: functional
measured_attribute: MIC (µg/mL)

structure_string: CCCCCCCCCCCC(=O)N[C@@H](C)/C=C/C(=O)N[C@@H](CCCNC(=N)N)C(=O)N[C@@H](C)/C=C/C(=O)N[C@@H](CCCNC(=N)N)C(N)=O
assay_system: Candida albicans
experimental_value: 3.12

P = CCCCCCCCCCCC(=O)N[C@H](/C=C/C(=O)N[C@@H](CCCCN)C(=O)N[C@H](/C=C/C(=O)N[C@@H](CCCCN)C(N)=O)Cc1ccc(O)cc1)Cc1ccc(O)cc1
Q = CCCCCCCCCCCC(=O)N[C@H](/C=C/C(=O)N[C@@H](CCCCN)C(=O)N[C@H](/C=C/C(=O)N[C@@H](CCCCN)C(N)=O)Cc1ccccc1)Cc1ccccc1
Returns: the label, P or Q , whose recorded MIC is the lower number. Reply with the label of the item you choose.
P
(P: 1.56 µg/mL, Q: 3.12 µg/mL)
